- System: MCF7 breast
- Method: NCI-60 one-dose screen, 48 h (100 = growth as untreated, 0 = no growth, -100 = all killed)
- Condition notes: 10 µM unless noted
About 83,000 compounds went through this panel and 20% of them were active in at least one assay; those are over-represented in the sample as a whole. Calls of active or inactive are those of the source. Rule for the calls: active = growth percent below 10; inactive = the rest.
Recorded metric: growth

>>> result("CCN(CC)c1ccc(/C=N/NC(=O)c2ccc(Nc3ccnc(C(F)(F)F)c3)cc2)c(O)c1")
"13.9% (inactive)"
>>> result("CCCCCSB(SCCCCC)c1ccccc1")
"104% (inactive)"
>>> result("Cc1cc2nc(-c3c(-c4ccc(F)cc4)nc4sccn34)[nH]c2cc1C")
"91.6% (inactive)"
>>> result("CCOC(=O)C/C(=N\\Nc1cc(=O)[nH]c2ccc(Cl)cc12)C(=O)OCC")
"96.5% (inactive)"
>>> result("O=c1[nH]cnc2c1C(c1ccc(Br)cc1)c1sc3c(F)cccc3c1O2 (stereo not given)")
"77.3% (inactive)"
>>> result("COP(=O)(OC)c1nnn(-c2cccc([N+](=O)[O-])c2)c1C")
"97.9% (inactive)"
>>> result("COc1ccc2nc3cc(Cl)ccc3c(NCCN)c2c1")
"-70.2% (active)"
>>> result("CC1=C(C(=O)n2c3ccccc3c3ccccc32)C(c2cccc([N+](=O)[O-])c2)C(C(=O)n2c3ccccc3c3ccccc32)=C(C)N1")
"94.8% (inactive)"
>>> result("Fc1ccc(COc2ccc(Nc3ncnc4sc5c(c34)CCCC5)cc2)cc1")
"88.2% (inactive)"
>>> result("O=C1c2cccnc2C(=O)c2c1c(C(=O)OCCCN1CCCCC1)c1ccccn21")
"-42% (active)"
>>> result("C=C1C(=O)O[C@H]2[C@H]1CC/C(Cn1cc(-c3cc(C(F)(F)F)cc(C(F)(F)F)c3)nn1)=C\\CC[C@@]1(C)O[C@@H]21")
"-67.6% (active)"
>>> result("NC(=O)c1ccc(NC(=O)c2oc3ccccc3c2-c2cnn(-c3ccccc3)c2)cc1")
"-1.73% [50 µM] (active)"
>>> result("Cc1nc2sc(C(=O)Nc3cccc(Cl)c3)c(N)c2cc1C(O)c1ccccc1 (stereo not given)")
"21.9% (inactive)"
>>> result("CC(C)CN1CC(C(=O)Nc2ccc3c(c2)-c2ccccc2C3)CC1=O (stereo not given)")
"52.9% [50 µM] (inactive)"
>>> result("COC(=O)Cc1nc(C#N)c(N(C)C)o1")
"94.9% (inactive)"
>>> result("Cn1cc(-c2nc(-c3c[nH]c4ccncc34)cs2)c2cc(Br)ccc21")
"-72.4% (active)"
>>> result("CCOC(=O)c1c(-c2ccc(Cl)cc2)c(C#N)c2c(C#N)c(N)nn2c1N")
"37.6% (inactive)"
>>> result("COc1ccccc1NC(=O)c1ccc(/C=C/C(=O)c2nccn2C)cc1")
"-45.6% (active)"
>>> result("C=C(CN1CC=CCC1)[C@@H]1CC[C@]2(CO)CC[C@]3(C)[C@H](CC[C@@H]4[C@@]5(C)CC[C@H](O)C(C)(C)[C@@H]5CC[C@]43C)[C@@H]12")
"88.7% (inactive)"
>>> result("COc1cc2c3c(n(CCCCNCCCn4c5c(c6cc(OC)c(OC)cc6c4=O)C(=O)c4cc6c(cc4-5)OCO6)c(=O)c2cc1OC)-c1cc2c(cc1C3=O)OCO2")
"93.6% (inactive)"
>>> result("Cn1ccnc1C(=O)/C=C/c1ccc(C(=O)Nc2ccc(F)cc2)cc1")
"19% (inactive)"
>>> result("COC(c1ccc2ccccc2c1)C(C)C(F)F (stereo not given)")
"109% (inactive)"
>>> result("CC(C(=O)O)n1c(O)c(C=Nc2cccnc2)sc1=S (stereo not given)")
"86.7% (inactive)"
>>> result("CC1=NN(c2ccc(Cl)cc2)CC1(C)N=O (stereo not given)")
"29.7% (inactive)"
>>> result("Cc1[nH]c(C(=O)Nc2ccc(C(N)=O)cc2NC(C)C)c(Cl)c1Cl")
"92% (inactive)"

Where do the numbers come from? From PubChem BioAssay (NCI).
